So I've got a bunch of variants here, and I need their self-cleavage values.
B1: CPEB3 Ribozyme (parent)
chain: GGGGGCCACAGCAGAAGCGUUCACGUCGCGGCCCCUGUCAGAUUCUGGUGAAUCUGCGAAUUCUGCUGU

variants of: B1; test: self-cleavage, relative activity (ratio to wild type); higher = more cleavage; co-transcriptional
Numbers only.

>>> experimental_result("G41C G47A")
0.904
>>> experimental_result("A23U U44C")
0.869
>>> experimental_result("C24G A59U")
0.225

Required: self-cleavage, one value per variant below.
1. G50U G56A
2. A40G U69C
3. C35G A52C

Result:
1. 0.928
2. 0.718
3. 0.433

Required: self-cleavage, one value per variant below.
1. A8G C54G
2. C12U G25A
3. C35A U43A
4. G30A U38G
5. G1U G48A
6. G1C U26C
7. G11C C54G
8. C35G G37U

Result:
1. 0.343
2. 0.184
3. 0.185
4. 0.274
5. 0.192
6. 0.162
7. 0.261
8. 0.257

Required: self-cleavage, one value per variant below.
1. C24A U49A
2. G2U G11U
3. A23G A60C
4. U38A A52U
5. G14A G58A

Result:
0.815
0.0835
0.249
0.856
0.703
